Target: T1, O2-bS
T1 chain: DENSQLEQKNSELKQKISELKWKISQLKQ
Assay: two-hybrid library CCNG1;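 also: natural log of median RNA to DNA barcode read ratio; higher means stronger binding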
observable: interaction score

// below: answered binders
- binder: "DKNSQLKQENSELEQKISELKWKISQLKQ [O10-bS]"
  interaction score: -1.55
- binder: "DEISQLEQENSELEQKISELKWENSQLEQ [O15-bS]"
  interaction score: -0.919
- binder: "DENSQLEQEISELEQENSELEWKISQLKQ [O14-bS]"
  interaction score: -1.15
- binder: "DKNSQLKQKISELKQKNSELKWEISQLEQ [O13-bS]"
  interaction score: -0.819
- binder: "DKNSQLKQENSELEQEISELEWEISQLEQ [O1-bS]"
  interaction score: 2.08

Now for a further binder.
input: Specify reported interaction score for the binder shown: DEISQLEQKISELKQKNSELKWKNSQLKQ [O12-bS]
output: -0.108
